Where these numbers come from: patent US12065416B2

- targetOrTestSystem: recombinant cGAS (aa147-522) (Homo sapiens)
- Construct: recombinant cGAS (aa147-522); His6-SUMO (N, cleaved yes)
- Sequence (Q8N884 147-522): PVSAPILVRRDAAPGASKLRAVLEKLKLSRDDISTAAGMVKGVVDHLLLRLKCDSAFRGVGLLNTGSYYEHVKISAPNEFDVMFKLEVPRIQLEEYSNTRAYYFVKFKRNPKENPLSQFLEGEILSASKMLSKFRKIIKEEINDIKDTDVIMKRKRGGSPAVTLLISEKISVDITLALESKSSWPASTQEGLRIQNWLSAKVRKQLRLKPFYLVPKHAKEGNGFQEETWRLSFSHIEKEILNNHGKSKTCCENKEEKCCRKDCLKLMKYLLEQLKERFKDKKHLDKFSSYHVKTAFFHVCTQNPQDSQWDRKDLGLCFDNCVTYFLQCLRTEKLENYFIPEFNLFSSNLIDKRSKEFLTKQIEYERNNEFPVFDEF
- method: In vitro assay for inhibition of cGAS activity (ATP consumption, Kinase Glo)
- assayConditions: 37° C. 20 minutes, read-out: Activity (Inhibition of cGAS enzyme activity in vitro, IC50)
pIC50: −log10 of the molar value.
readoutName: pIC50

These recorded examples may help you get a feel for the data.
O=C1/C(=C/c2cc(OCc3cnc(NCc4ccccn4)nc3)c(O)cc2Br)Sc2ncccc21; ≥ 6.30
CCC/N=C1/S/C(=C\c2cc(OC)c(O)cc2Br)C(=O)N1C; ≤ 5.00

Inquiry: Endpoint output: pIC50 of `CN1C(=O)S/C(=C\c2cc3cc[nH]c3cc2Br)C1=O` . Value?
Reply text: 5.00 to 6.30

Inquiry: Need pIC50, item `CN1C(=O)S/C(=C\c2cc(OCCc3cnc(N)nc3)c(O)cc2Br)C1=O`
Reply text: ≥ 6.30

Inquiry: Requested read-out: pIC50. Entry: `CN1C(=O)S/C(=C\c2cc(OCc3cccnc3)c(O)c(F)c2Br)C1=O`
Reply text: ≥ 6.30

----------
- targetOrTestSystem: recombinant cGAS (aa147-522) (Homo sapiens)
- Construct: recombinant cGAS (aa147-522); His6-SUMO (N, cleaved yes)
- method: In vitro assay for inhibition of cGAS activity (ATP consumption, Kinase Glo)
- assayConditions: 37° C. 20 minutes, read-out: Activity (Inhibition of cGAS enzyme activity in vitro, IC50)
- Method: cDNA encoding full-length or amino acids 147-520 of human cGAS is inserted into a modified pET28a vector containing an in-frame His6-SUMO tag. The E. coli strain BL21/pLys harboring the plasmid is induced with 0.5 mM IPTG at 18° C. overnight. […] A40 μL mixture containing 1.5 ng/μL of recombinant cGAS (aa147-522) and serial dilutions of a test compound or DMSO was added to a 96-well plate and incubated at 37° C. for 20 minutes. […] IC50 value was calculated using Graphpad (Sigma).
pIC50: −log10 of the molar value.
# pIC50 listing for each entry below

// solved cases for pIC50 follow
CN1C(=O)S/C(=C\c2cc3nn[nH]c3cc2Br)C1=O [Ex36]; ≤ 5.00
COc1cc(/C=C2\Sc3ncccc3C2=O)c(Br)cc1Oc1cnc(N)s1 [Ex74]; 5.00 to 6.30
CN1CCC(c2ncc(COc3cc(/C=C4\SC(=O)N(C)C4=O)c(Br)cc3O)cn2)CC1 [Ex209]; 5.00 to 6.30
CN1C(=O)S/C(=C\c2cc(OCc3cnc(-c4ccccc4)nc3)c(O)cc2Br)C1=O [Ex145]; 5.00 to 6.30
O=C1/C(=C/c2ccc(O)cc2Br)Sc2ncccc21 [Ex71]; ≥ 6.30

Inquiry: Which pIC50 reading was recorded for the molecule O=C1/C(=C/c2cc(OCc3cnc(NCCO)nc3)c(O)cc2Br)Sc2ncccc21 [Ex196] ?
Reply text: ≥ 6.30

Inquiry: Can you share its pIC50? I mean this molecule: CN1C(=O)S/C(=C\c2cc(OCc3cncc(N)c3)c(O)cc2Br)C1=O [Ex132]
Reply text: 5.00 to 6.30

Inquiry: I have this molecule here, COc1cc(/C=C2\SC(=O)N(C)C2=O)c(Br)cc1NS(=O)(=O)c1cnc(N)s1 [Ex61] , and I need its recorded pIC50.
Reply text: 5.00 to 6.30

Inquiry: # pIC50 lookup, item CN1C(=O)S/C(=C\c2cc3c(-c4cnc(N)nc4)c[nH]c3c(F)c2Br)C1=O [ExB40]
Reply text: ≥ 6.30
